Tested on: NCI/ADR-RES ovarian
Experiment: NCI tumour cell line growth inhibition, 48 h
Where a SMILES comes first, the peptide text is derived from it. The star is where a group is joined. Boc = CC(C)(C)OC(=O)*; Bn = c1ccc(C*)cc1
measured parameter: TGI

Recorded results for 8 molecules are shown here.
molecule	subject of test	TGI
O=C1c2c(Cl)c(Cl)c(Cl)c(Cl)c2C(=O)C2(Cl)CC=CCC12Cl (stereo unspecified)	NCI/ADR-RES ovarian	13.2 µM
O=C(O)CCCN=C(C1=C(O)C(=O)N(c2ccccc2)C1=O)c1ccccc1	NCI/ADR-RES ovarian	> 100 µM
CNC(=O)C(CC(C)C)NC(=O)C(C)NC(=O)C(Cc1ccc(OCc2ccccc2)cc1)NC(=O)C(COCc1ccccc1)NC(=O)OC(C)(C)C (stereo unspecified) (Boc-S(Bn)Y(Bn)AL-NHMe; configuration not given here)	NCI/ADR-RES ovarian	> 100 µM
CCNc1nnc(-c2ccccc2Nc2ccccc2-c2nnc(NCC)s2)s1	NCI/ADR-RES ovarian	> 100 µM
C/C(=C\C(=N\NC(=N)N)c1ccccc1)c1ccccc1	NCI/ADR-RES ovarian	10.1 µM
Cc1ccsc1C(=S)Nc1ccc(Cl)c(/C=N/OC(C)C)c1	NCI/ADR-RES ovarian	> 100 µM
CC(=Nc1ccc(Cl)c(Cl)c1)c1ccncc1	NCI/ADR-RES ovarian	> 100 µM
Nc1cc(Cl)ccc1SSc1ccc(Cl)cc1N	NCI/ADR-RES ovarian	30.4 µM

Lookup: Name the recorded TGI of the item `COC(=O)[C@]12CSC[C@H]1C[C@H](c1cccc3ccccc13)N2` in your answer.
Found: > 100 µM

Lookup: Name the recorded TGI of the item `N#Cc1c(N/N=C\c2ccc(Cl)cc2)nc(N)nc1N1CCOCC1` in your answer.
Found: > 100 µM

Lookup: Name the recorded TGI of the item C=C1C(=O)C2=CC1CCC(=O)C1(C)CCC(OC(C)=O)C(C)(C)C1CC2O (stereo unspecified) in your answer.
Found: 24.9 µM

Lookup: Name the recorded TGI of the item `O=c1[nH]c(=O)n(CCOc2ccc(Cl)cc2)cc1Nc1ccccc1` in your answer.
Found: > 100 µM

Lookup: Name the recorded TGI of the item `CC(=O)N[C@@H](Cc1ccc(OP(=O)(O)O)cc1)C(=O)N[C@H]1CCC(=O)N2CCC[C@@H](C(=O)NCc3ccccc3)N2C1=O` in your answer.
Found: > 25 µM
